Data origin: the supplement of paper PMC9170038

# System: MS2 coat protein
# protocol-description: apparent KD of MS2 coat protein; higher = weaker reporter binding
# study-conditions: Eterna round: R107; input ligand: none
measure: apparent KD of MS2 coat protein (nM)
State just the number; it will be interpreted in nM.

Example cases with answers are listed next.
macromolecule-sequence: CCAUGCAGGUCGGCCGCCACUACACACAUGAGGAUCACCCAUGUAGUUACUGGGUGAAGUGGCAGUAGGACCGGGACCUGCAUAC [Brourdmod12]
units-label: nM
apparent KD of MS2 coat protein: 341

macromolecule-sequence: UAAAAUAUCUGGGUGUAGGUAAUAACAGAUACCAGCCAGAUAACUGGCCCUUGGCAGCUGAAAACAUGAGGAUCACCCAUGUAAA [TheoAS 22 #OpenEnded #Ms2Late]
units-label: nM
apparent KD of MS2 coat protein: 30.7

macromolecule-sequence: AGCGAUUUCGGAAGGAGCGGUACAUGAGGAUCACCCAUGUAUUCAAUCGUGAUCGGCGCGUGCCAGGUAGGUCGCCGAAGGCGUC [Veatat]
units-label: nM
apparent KD of MS2 coat protein: 9.95

macromolecule-sequence: CGGACAUGAGGAUCACCCAUGUACACUGAAGGAGCGUCGAGAACGACAGGUAGGUCGCAGGCUAAGGAAGGUGAUGCUCAAGAAG [Exclusion Arginine A GF5]
units-label: nM
apparent KD of MS2 coat protein: 36.5

macromolecule-sequence: UCUACAUGAGGAUCACCCAUGUGCCAUGAUACCAGACAUGAAAAUGUCCCUUGGCAGCGUGGGUAGCGCAUCCGAAAGGAUGCGC [#08 SameState-TheophyllineA]
units-label: nM
apparent KD of MS2 coat protein: 702

Consider the record given below.
Quick note, apparent KD of MS2 coat protein for `UUCAGCUAGUCGGCCGCCACUACAUGAGCAUCAGCCAUGUUCCUAAAACACUGCUUCGGCAGUGGUAGGACCGGGACUAGCUGAG` landed at 11
